Tested on: BDF1 mice, P388 leukemia ip, median survival T/C
ASSAY: NCI In Vivo Anticancer Drug Screen. Data for tumor model P388 Leukemia (intraperitoneal) in B6D2F1 (BDF1) mice
PARTICULARS: endpoint: median survival time; dose: 100.0 mg/kg/injection; schedule: Q04DX003 (ip); vehicle: saline with Tween-80; higher = longer survival
Inconclusive results and toxic doses are left out.
Each record here notes measured T/C.
QUANTITY: T/C

{"COMPOUND": "CCCCCCC1OCC2(CO1)COC(CCCCCC)OC2 (stereo unspecified)", "MEASUREMENT TARGET": "BDF1 mice, P388 leukemia ip, median survival T/C", "ENDPOINT RESULT": "90 % of control"}
{"COMPOUND": "CCOC(=O)C(=CN1CCCC1)C(=O)OCC", "MEASUREMENT TARGET": "BDF1 mice, P388 leukemia ip, median survival T/C", "ENDPOINT RESULT": "100 % of control"}
{"COMPOUND": "CC(C)(C)NC(=S)Nc1ccc2c(c1)nc(-c1ccccc1)c1cc(NC(=S)NC(C)(C)C)ccc12", "MEASUREMENT TARGET": "BDF1 mice, P388 leukemia ip, median survival T/C", "ENDPOINT RESULT": "111 % of control"}
{"COMPOUND": "CCCCCCCSc1ncnc2nc[nH]c12", "MEASUREMENT TARGET": "BDF1 mice, P388 leukemia ip, median survival T/C", "ENDPOINT RESULT": "86 % of control"}
{"COMPOUND": "CCCCOc1cc(C(=O)O)ccc1[N+](=O)[O-]", "MEASUREMENT TARGET": "BDF1 mice, P388 leukemia ip, median survival T/C", "ENDPOINT RESULT": "104 % of control"}
{"COMPOUND": "CCOC(=O)N/N=C\\c1cc(OC)c(OC)c(OC)c1", "MEASUREMENT TARGET": "BDF1 mice, P388 leukemia ip, median survival T/C", "ENDPOINT RESULT": "108 % of control"}
{"COMPOUND": "CC(=O)NCC(S)c1ccc(Cl)cc1 (stereo unspecified)", "MEASUREMENT TARGET": "BDF1 mice, P388 leukemia ip, median survival T/C", "ENDPOINT RESULT": "118 % of control"}
{"COMPOUND": "O=C(Cc1ccc(F)cc1)c1ccccc1", "MEASUREMENT TARGET": "BDF1 mice, P388 leukemia ip, median survival T/C", "ENDPOINT RESULT": "88 % of control"}
{"COMPOUND": "CCCCCCCCCC(O)CCCCC (stereo unspecified)", "MEASUREMENT TARGET": "BDF1 mice, P388 leukemia ip, median survival T/C", "ENDPOINT RESULT": "100 % of control"}
{"COMPOUND": "COc1ccccc1OC(=O)Nc1ccc(C)c([N+](=O)[O-])c1", "MEASUREMENT TARGET": "BDF1 mice, P388 leukemia ip, median survival T/C", "ENDPOINT RESULT": "100 % of control"}
{"COMPOUND": "CC(C)C(C(=O)c1ccccc1)c1ccccc1 (stereo unspecified)", "MEASUREMENT TARGET": "BDF1 mice, P388 leukemia ip, median survival T/C", "ENDPOINT RESULT": "100 % of control"}
{"COMPOUND": "CC(=O)OCC(CCn1ccc(=O)[nH]c1=O)COC(C)=O", "MEASUREMENT TARGET": "BDF1 mice, P388 leukemia ip, median survival T/C", "ENDPOINT RESULT": "98 % of control"}
{"COMPOUND": "COc1ccccc1NC(=S)N(C)C", "MEASUREMENT TARGET": "BDF1 mice, P388 leukemia ip, median survival T/C", "ENDPOINT RESULT": "109 % of control"}
{"COMPOUND": "O=C1N(Cl)C(=O)C(c2ccc(C(F)(F)F)cc2)(c2ccc(C(F)(F)F)cc2)N1Cl", "MEASUREMENT TARGET": "BDF1 mice, P388 leukemia ip, median survival T/C", "ENDPOINT RESULT": "100 % of control"}
{"COMPOUND": "O=C(O)c1c(-c2ccccc2)[nH]c2cc(Cl)ccc2c1=O", "MEASUREMENT TARGET": "BDF1 mice, P388 leukemia ip, median survival T/C", "ENDPOINT RESULT": "113 % of control"}
{"COMPOUND": "Cc1nc([N+](=O)[O-])cn1CCC#N", "MEASUREMENT TARGET": "BDF1 mice, P388 leukemia ip, median survival T/C", "ENDPOINT RESULT": "98 % of control"}
{"COMPOUND": "COc1ccc(C2CCc3cc4c(cc3C2=O)OCO4)cc1OC (stereo unspecified)", "MEASUREMENT TARGET": "BDF1 mice, P388 leukemia ip, median survival T/C", "ENDPOINT RESULT": "90 % of control"}
{"COMPOUND": "O=C(Nc1ccc2c(c1)OCO2)O/N=C\\c1ccccn1", "MEASUREMENT TARGET": "BDF1 mice, P388 leukemia ip, median survival T/C", "ENDPOINT RESULT": "118 % of control"}
{"COMPOUND": "CCCC(=O)Oc1ccc2c(C)cc(=O)oc2c1", "MEASUREMENT TARGET": "BDF1 mice, P388 leukemia ip, median survival T/C", "ENDPOINT RESULT": "104 % of control"}
{"COMPOUND": "CC(=O)[C@H]1CC[C@H]2[C@@H]3C[C@H](C)C4=CC(=O)CC[C@]4(C)[C@H]3[C@@H](O)C[C@]12C", "MEASUREMENT TARGET": "BDF1 mice, P388 leukemia ip, median survival T/C", "ENDPOINT RESULT": "107 % of control"}
{"COMPOUND": "CC(C(=O)c1ccccc1)C(Cl)c1ccccc1 (stereo unspecified)", "MEASUREMENT TARGET": "BDF1 mice, P388 leukemia ip, median survival T/C", "ENDPOINT RESULT": "89 % of control"}
{"COMPOUND": "CC(C#N)(Nc1ccccc1)c1ccccc1 (stereo unspecified)", "MEASUREMENT TARGET": "BDF1 mice, P388 leukemia ip, median survival T/C", "ENDPOINT RESULT": "95 % of control"}
{"COMPOUND": "CN1C(=O)NC(C)(c2cccs2)C1=O (stereo unspecified)", "MEASUREMENT TARGET": "BDF1 mice, P388 leukemia ip, median survival T/C", "ENDPOINT RESULT": "101 % of control"}
{"COMPOUND": "Clc1ccccc1-c1ncc2cnccn12", "MEASUREMENT TARGET": "BDF1 mice, P388 leukemia ip, median survival T/C", "ENDPOINT RESULT": "88 % of control"}
{"COMPOUND": "COc1ccc(C=Nc2ccccc2N=Cc2ccc(OC)c(OC)c2)cc1OC", "MEASUREMENT TARGET": "BDF1 mice, P388 leukemia ip, median survival T/C", "ENDPOINT RESULT": "110 % of control"}
{"COMPOUND": "Nc1ccc(OCc2ccccc2)cc1", "MEASUREMENT TARGET": "BDF1 mice, P388 leukemia ip, median survival T/C", "ENDPOINT RESULT": "100 % of control"}
{"COMPOUND": "O=C(CC(NC(=O)OCc1ccccc1)c1nn[nH]n1)OCc1ccccc1 (stereo unspecified)", "MEASUREMENT TARGET": "BDF1 mice, P388 leukemia ip, median survival T/C", "ENDPOINT RESULT": "100 % of control"}
{"COMPOUND": "O=C1c2ccccc2CCC12OC2c1ccc(Cl)cc1 (stereo unspecified)", "MEASUREMENT TARGET": "BDF1 mice, P388 leukemia ip, median survival T/C", "ENDPOINT RESULT": "91 % of control"}
{"COMPOUND": "O=C(Cn1ccc(=O)[nH]c1=O)c1cccs1", "MEASUREMENT TARGET": "BDF1 mice, P388 leukemia ip, median survival T/C", "ENDPOINT RESULT": "100 % of control"}
{"COMPOUND": "CCC(=O)c1ccc(OCC(O)CN2CCN(c3ccccc3OC)CC2)cc1 (stereo unspecified)", "MEASUREMENT TARGET": "BDF1 mice, P388 leukemia ip, median survival T/C", "ENDPOINT RESULT": "104 % of control"}
{"COMPOUND": "O=c1[nH]c(=O)n(CCc2cccs2)cc1F", "MEASUREMENT TARGET": "BDF1 mice, P388 leukemia ip, median survival T/C", "ENDPOINT RESULT": "94 % of control"}
{"COMPOUND": "O=C(Nc1cccc(Cl)c1)Nc1ccccc1Cl", "MEASUREMENT TARGET": "BDF1 mice, P388 leukemia ip, median survival T/C", "ENDPOINT RESULT": "97 % of control"}
{"COMPOUND": "Cc1ccc(C)c(NC(=O)c2cccc(Cl)c2)c1", "MEASUREMENT TARGET": "BDF1 mice, P388 leukemia ip, median survival T/C", "ENDPOINT RESULT": "104 % of control"}
{"COMPOUND": "CCN(CC)CCOc1cc(C)ccc1C(C)C", "MEASUREMENT TARGET": "BDF1 mice, P388 leukemia ip, median survival T/C", "ENDPOINT RESULT": "118 % of control"}
{"COMPOUND": "C=CCC1(CCC)C(=O)NC(=O)NC1=O", "MEASUREMENT TARGET": "BDF1 mice, P388 leukemia ip, median survival T/C", "ENDPOINT RESULT": "95 % of control"}
{"COMPOUND": "Cc1ccc(S(=O)(=O)N(C)c2ccc(C#N)c(Cl)c2Cl)cc1", "MEASUREMENT TARGET": "BDF1 mice, P388 leukemia ip, median survival T/C", "ENDPOINT RESULT": "90 % of control"}
{"COMPOUND": "Clc1ccc2nc(CBr)cnc2c1", "MEASUREMENT TARGET": "BDF1 mice, P388 leukemia ip, median survival T/C", "ENDPOINT RESULT": "109 % of control"}
{"COMPOUND": "COP(=O)(OC)C(OC(=O)C(C)(C)SC(C)=S)=C(C)C", "MEASUREMENT TARGET": "BDF1 mice, P388 leukemia ip, median survival T/C", "ENDPOINT RESULT": "110 % of control"}
{"COMPOUND": "C1=CC2C3CC(OCCOC4CC5CC4C4CC=CC54)C(C3)C2C1 (stereo unspecified)", "MEASUREMENT TARGET": "BDF1 mice, P388 leukemia ip, median survival T/C", "ENDPOINT RESULT": "115 % of control"}
{"COMPOUND": "Cc1ccccc1NC=O", "MEASUREMENT TARGET": "BDF1 mice, P388 leukemia ip, median survival T/C", "ENDPOINT RESULT": "95 % of control"}
{"COMPOUND": "O=c1oc2c(c(N(c3ccccc3)c3ccccc3)c1Cl)CSc1ccccc1-2", "MEASUREMENT TARGET": "BDF1 mice, P388 leukemia ip, median survival T/C", "ENDPOINT RESULT": "90 % of control"}
{"COMPOUND": "CC(C)=CCCC(C)C/C=N\\O (stereo unspecified)", "MEASUREMENT TARGET": "BDF1 mice, P388 leukemia ip, median survival T/C", "ENDPOINT RESULT": "109 % of control"}
{"COMPOUND": "CS(=O)(=O)OCC(OS(C)(=O)=O)C(COS(C)(=O)=O)OS(C)(=O)=O (stereo unspecified)", "MEASUREMENT TARGET": "BDF1 mice, P388 leukemia ip, median survival T/C", "ENDPOINT RESULT": "91 % of control"}
{"COMPOUND": "Cc1ccc(NC(=O)Nc2ccccc2F)cc1NC(=O)Nc1ccccc1F", "MEASUREMENT TARGET": "BDF1 mice, P388 leukemia ip, median survival T/C", "ENDPOINT RESULT": "104 % of control"}
{"COMPOUND": "CCCCCCCNC(=O)Nc1cc([N+](=O)[O-])ccc1C", "MEASUREMENT TARGET": "BDF1 mice, P388 leukemia ip, median survival T/C", "ENDPOINT RESULT": "100 % of control"}
{"COMPOUND": "CCCCCCCCOc1cc(OCCCCCCCC)c2c(ccc3ccccc32)c1", "MEASUREMENT TARGET": "BDF1 mice, P388 leukemia ip, median survival T/C", "ENDPOINT RESULT": "97 % of control"}
{"COMPOUND": "CCCCCCCCCCCC[Si](CCCCCCCCCCCC)(c1ccccc1)c1ccccc1", "MEASUREMENT TARGET": "BDF1 mice, P388 leukemia ip, median survival T/C", "ENDPOINT RESULT": "100 % of control"}
{"COMPOUND": "CS(=O)(=O)OC[C@H](OS(=O)(=O)O)[C@H](COS(C)(=O)=O)OS(=O)(=O)O", "MEASUREMENT TARGET": "BDF1 mice, P388 leukemia ip, median survival T/C", "ENDPOINT RESULT": "110 % of control"}
{"COMPOUND": "NC(=O)c1ncn[nH]1", "MEASUREMENT TARGET": "BDF1 mice, P388 leukemia ip, median survival T/C", "ENDPOINT RESULT": "100 % of control"}
{"COMPOUND": "CC1C(=O)CCC2(C)C1CCC1C3CCC(O)C3(C)CCC12 (stereo unspecified)", "MEASUREMENT TARGET": "BDF1 mice, P388 leukemia ip, median survival T/C", "ENDPOINT RESULT": "95 % of control"}
{"COMPOUND": "CCN(CCS)Cc1ccccc1", "MEASUREMENT TARGET": "BDF1 mice, P388 leukemia ip, median survival T/C", "ENDPOINT RESULT": "109 % of control"}
